Recorded values, source patent US20160068834A1.

Study System: C-terminal His-tagged EED (His-EED) (UniProt O75530 1-441)
Sequence (O75530 whole entry): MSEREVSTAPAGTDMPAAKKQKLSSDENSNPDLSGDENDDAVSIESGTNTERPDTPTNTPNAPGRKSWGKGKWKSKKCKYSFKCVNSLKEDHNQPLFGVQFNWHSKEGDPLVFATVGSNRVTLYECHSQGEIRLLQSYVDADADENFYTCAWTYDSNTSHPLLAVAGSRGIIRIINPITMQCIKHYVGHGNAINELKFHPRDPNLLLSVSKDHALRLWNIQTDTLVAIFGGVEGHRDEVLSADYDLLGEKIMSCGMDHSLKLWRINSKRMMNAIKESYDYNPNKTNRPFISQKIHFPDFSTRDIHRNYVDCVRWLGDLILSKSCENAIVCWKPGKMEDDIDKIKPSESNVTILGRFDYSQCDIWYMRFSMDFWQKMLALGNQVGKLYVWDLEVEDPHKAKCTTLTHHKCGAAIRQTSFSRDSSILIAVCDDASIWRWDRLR
Assay Protocol: fluorescence polarization
Bridges are numbered along the chain shown (N, C = ends). Where no end group is shown, it is not given here. [ ]: non-standard residue; d: D form. The star is where a group is joined. FITC = O=C1OC2(c3ccc(O)cc3Oc3cc(O)ccc32)c2ccc(NC(=S)*)cc21; S5 = C=CCCC[C@](C)(N)C(=O)O
Reported Metric: pKd
One number for each entry, as −log10 of the molar value.

Which measured pKd value corresponds to {FITC}-FSSNR[S5]KIL[S5]RTQILNQEWKQRRIQPV (staple 6-10) [FITC-SAH-EZH2A(42-68)E54Q] ?
6.49
